Provenance of the data: PubChem BioAssay (NCI)

Measured log10(TGI) values are reported for all entries that follow.
- Test system: IGROV1 ovarian
- Protocol Details: NCI tumour cell line growth inhibition, 48 h
Metric: log10(TGI) (log10 of the value in µM)

>>> value_reported("C[C@H]1[C@H](C)CC[C@]2(C(=O)O)CCC3(COC(=O)/C=C/c4ccc(O)cc4)C(=CCC4[C@@]5(C)CC[C@H](O)C(C)(C)C5CC[C@]43C)[C@H]12 (some centres undefined)")
1.19
>>> value_reported("COc1ccccc1/C=C1\\CCC(CN2CCOCC2)C1=O (centres undefined)")
1.47
>>> value_reported("Cc1cnc(-c2ccc(-c3ccc(NC(=O)Nc4cccc(C(F)(F)F)c4)cc3F)c3c2C(=O)NC3)[nH]1")
1.51
>>> value_reported("COc1ccc(C(=O)/C=C/c2c(C(F)(F)F)nc3ccccn23)cc1OC")
0.53
>>> value_reported("Cc1nnc(N)nc1C/C=C/C(C)Sc1ccc(Cl)cc1 (centres undefined)")
1.13
>>> value_reported("CC(/C=C1\\CCC(CN(C)C)C1=O)c1cccc(Br)c1 (centres undefined)")
1.29
>>> value_reported("CC(C)C1CCC(=O)CC1CCCCC1CC(=O)CC1O[Si](C)(C)C(C)(C)C (centres undefined)")
0.92
>>> value_reported("CCN(CC)CCCNC(=O)c1ccccc1Nc1c(Cl)cccc1Cl")
1.53
>>> value_reported("[O-][N+]1=C(c2ccccc2)/C(=C2/C(c3ccccc3)=[N+]([O-])c3ccccc32)Cc2ccccc21")
1.55
>>> value_reported("CCN(CC)CCC(=O)Nc1ccc2sc3ccccc3c(=O)c2n1")
1.55
